Let's look at some compounds and their measured zone of inhibition at 500 µg/mL.
Test system: Escherichia coli
Test: Antibacterial activity against Escherichia coli NCIM 2931 assessed as diameter of growth inhibition zone at 500 ug/ml after 20 hrs by agar disc diffusion method
Assay type: functional
Details: NCIM 2931, 20 h, read-out: DIZ
Report the value in mm with no unit label.

Check out these entries, answers already filled in.
COMPOUND | zone of inhibition at 500 µg/mL [mm]
Cn1cc(-c2cnc(N3CCC(C#N)CC3)c3nc(CCc4ccccc4)[nH]c23)cn1 | 5.4
N#CC1CCCN(c2ncc(-c3cccc(F)c3)c3[nH]c(-c4ccco4)nc23)C1 (centres undefined) | 8
COc1cc(-c2cnc(N3CCC(C#N)CC3)c3nc(Cc4ccc(Cl)cc4Cl)[nH]c23)ccc1F | 4.1

Continue with the next compound.
Param item = N#CC1CCCN(c2ncc(-c3cccc(F)c3)c3[nH]c(C4CCCCC4)nc23)C1 (centres undefined) ; retrieve measured zone of inhibition at 500 µg/mL.
6

---

Tested on: Bacillus cereus
Test: Antibacterial activity against Bacillus cereus NCIM 2155 assessed as diameter of growth inhibition zone at 1000 ug/ml after 20 hrs by agar disc diffusion method
Format: functional
Active and inactive are the calls of the source. The calls are words filed in the database; no cut-off is given here.
ASSAY_READOUT: diameter of the inhibition zone (DIZ)

MOLECULE | ASSAY_READOUT | VAL
COc1cc(-c2cnc(N3CCC(C#N)CC3)c3nc(Cc4ccc(Cl)cc4Cl)[nH]c23)ccc1F | diameter of the inhibition zone (DIZ) | inactive
Cn1cc(-c2cnc(N3CCC(C#N)CC3)c3nc(CCc4ccccc4)[nH]c23)cn1 | diameter of the inhibition zone (DIZ) | inactive
CC(C)(C)Cc1nc2c(N3CCCC(C#N)C3)ncc(-c3cccc(F)c3)c2[nH]1 (stereo not given) | diameter of the inhibition zone (DIZ) | inactive
N#CC1CCCN(c2ncc(-c3cccc(F)c3)c3[nH]c(CSc4ccccc4)nc23)C1 (stereo not given) | diameter of the inhibition zone (DIZ) | inactive

Continue with the next molecule.
Param item = Cc1cccc(Cc2nc3c(N4CCCC(C#N)C4)ncc(-c4cccc(F)c4)c3[nH]2)c1 (stereo not given) ; retrieve measured diameter of the inhibition zone (DIZ).
inactive

---

Tested on: Pseudomonas aeruginosa
Assay: Antibacterial activity against Pseudomonas aeruginosa MTCC 4727 assessed as diameter of growth inhibition zone at 500 ug/ml after 20 hrs by agar disc diffusion method
Format: functional
Active and inactive are the calls of the source. No cut-off for these calls is given here.
ASSAY_READOUT: diameter of the inhibition zone (DIZ)

COMPOUND | TARGET_UNDER_TEST | VAL
Cn1cc(-c2cnc(N3CCC(C#N)CC3)c3nc(Cc4ccc(Cl)cc4Cl)[nH]c23)cn1 | Pseudomonas aeruginosa | inactive
N#CC1CCCN(c2ncc(-c3cccc(F)c3)c3[nH]c(C4CCCCC4)nc23)C1 (centres undefined) | Pseudomonas aeruginosa | inactive
N#CC1CCCN(c2ncc(-c3cccc(F)c3)c3[nH]c(Cc4cc(F)ccc4F)nc23)C1 (centres undefined) | Pseudomonas aeruginosa | inactive
N#CC1CCCN(c2ncc(-c3cccc(F)c3)c3[nH]c(-c4ccco4)nc23)C1 (centres undefined) | Pseudomonas aeruginosa | inactive
